tested on: HEK-293T; experiment: Multiplex assay against HEK293T; type: toxicity, cell-based; details: human, 12 h, 1 µM, compound concentration 1 uM, replicate 2
Readout Label: Population Mitotic Cells (%)
Hi! Could you send only the number? It should be in %, unit omitted.

Lookup: Item under review: Cc1ccc(C(C)(O)c2nc3ccccc3s2)c(C)c1 (configuration not stated) . Reported Population Mitotic Cells (%)?
Found: 58

Lookup: Entry CC[C@H]1OC(=O)[C@H](C)[C@@H](O[C@H]2C[C@@](C)(OC)[C@@H](O)[C@H](C)O2)[C@H](C)[C@@H](O[C@@H]2O[C@H](C)C[C@H](N(C)C)[C@H]2O)[C@@]2(C)CC(C)=C(O2)[C@H](C)[C@@H](O)[C@]1(C)O please
Found: 54

Lookup: Entry O=C1COc2nccc(-c3ccccc3F)c2CN1Cc1cc(C(F)(F)F)cc(C(F)(F)F)c1 please
Found: 48

Lookup: Entry CCCn1c(=O)c2[nH]c(C3CCCC3)nc2n(CCC)c1=O please
Found: 45

Lookup: Entry Cl.Clc1ccc2nsnc2c1NC1=NCCN1 [TIZANIDINE HYDROCHLORIDE] please
Found: 55

Lookup: Entry CC1(COc2ccc3c(c2)ncn3-c2ccc3cccc(N4CCC(N)CC4)c3n2)COC1 please
Found: 65

Lookup: Entry N#Cc1c(N)nc(SCc2csc(-c3ccc(Cl)cc3)n2)c(C#N)c1-c1ccc(OCCO)cc1 please
Found: 45

Lookup: Entry Cc1ccc(-c2ccc(F)cc2COc2ccc(CCC(=O)O)cc2)cc1 please
Found: 66

Lookup: Entry c1cc(OCCCN2CCCCC2)ccc1CN1CCCCC1 please
Found: 52

Lookup: Entry Cc1ccccc1C(=O)Nc1ccc(C(=O)N2CCCC(N(C)C)c3ccccc32)cc1.Cl (configuration not stated) please
Found: 46

Lookup: Entry CN1CCN2c3ncccc3Cc3ccccc3C2C1 (configuration not stated) please
Found: 48

Lookup: Entry CCCC(CCC)C(=O)O please
Found: 71

Lookup: Entry CCNC1(C(N)=O)CCN(c2ncnc3c2nc(-c2ccccc2Cl)n3-c2ccc(Cl)cc2)CC1 please
Found: 41

Lookup: Entry C[C@H](NC(=O)c1c(C(F)F)nn(C)c1Oc1cccc(C(F)(F)F)c1)c1ccc(C(=O)O)cc1 please
Found: 72

Lookup: Entry C[C@H]1[C@H]2CC[C@H]3[C@@H]4CC=C5C[C@@H](N(C)C)CC[C@]5(C)[C@H]4CC[C@]23CN1C please
Found: 51

Lookup: Entry O=C(O)c1cc2ccccc2c(Cc2c(O)c(C(=O)O)cc3ccccc23)c1O please
Found: 41

Lookup: Entry N[C@@]1(C(=O)O)CO[C@H]2[C@H](C(=O)O)[C@H]21 please
Found: 57

Lookup: Entry O=C(NCC(=O)N1CC[C@H](N[C@H]2CC[C@@](O)(c3ccc(-c4ncccn4)cn3)CC2)C1)c1cccc(C(F)(F)F)c1 please
Found: 66

Lookup: Entry O=S(=O)(c1ccccc1)c1cnc2c(N3CCNCC3)cccc2c1 [INTEPIRDINE] please
Found: 50

Lookup: Entry COc1ccccc1N1CCN(CCCCNC(=O)c2ccc3ccccc3c2)CC1.Cl please
Found: 63

Lookup: Entry CNC[C@H](O)c1ccc(O)c(O)c1 [EPINEPHRINE] please
Found: 43

Lookup: Entry CN(C)c1ccnc2sc3c(=O)n(N4CCCCCC4)cnc3c12 please
Found: 48
